- procedure_summary: chemical genetic growth profiling, strain panel (AID 1159580);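 note: tested at 20 µM; growth read once vehicle control cultures reached saturation at 30 °C; 1 = growth at the plate median or of vehicle wells; lower values mean less growth of the strain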
- settings: S. cerevisiae deletion strains, growth OD, locus YNL071W, strain lat1, hits give low values
Out of some 5,500 compounds screened, about 2,000 (36%) were called active. Another 18% or so got no clear call; they are omitted. The list shows a part of the results.
Exercise: for every item that follows, state its recorded normalized growth.
Answers are plain numbers.

Recorded normalized growth, per entry:
- molecule: "Nc1nc(N)c2nc(CNc3ccc(C(=O)NC(CCC(=O)O)C(=O)O)cc3)cnc2n1 (stereo unspecified)"
  measurement_kind: "normalized growth"
  reported: 0.998
- molecule: "C[C@H](COc1ccccc1)N[C@H](C)[C@H](O)c1ccc(O)cc1"
  measurement_kind: "normalized growth"
  reported: 1.01
- molecule: "COc1ccc(/C=C/c2cc(O)cc(O)c2)cc1"
  measurement_kind: "normalized growth"
  reported: 1
- molecule: "CCOC(=O)c1ccc(N)cc1"
  measurement_kind: "normalized growth"
  reported: 0.983
- molecule: "CCOc1ccc2c(c1)C(C)=CC(C)(C)N2"
  measurement_kind: "normalized growth"
  reported: 0.991

Read the next record carefully.
Q. Consider the molecule CN(Cc1cnc2nc(N)nc(N)c2n1)c1ccc(C(=O)NC(CCC(=O)O)C(=O)O)cc1 (stereo unspecified) . State its measured normalized growth.
A. 0.961

====

- procedure_summary: chemical genetic growth profiling, strain panel (AID 1159580);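 note: tested at 20 µM; growth read once vehicle control cultures reached saturation at 30 °C; 1 = growth at the plate median or of vehicle wells; lower values mean less growth of the strain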
- settings: S. cerevisiae deletion strains, growth OD, locus YKL068W, hits give low values
Among all 5,500 compounds or so, about 2,000 (36%) were called active. Inconclusive results (about 18%) are left out. This is one part of the list.
Lab note - cut at 1 for normalized growth: met if strictly below, not met if not.

The examples below pair each entry with its known result.
- compound: "O=C1N=C(O)CN1/N=C\\c1ccc(-c2ccc([N+](=O)[O-])cc2)o1"
  class_label: "not met"
- compound: "O=C(O)P(=O)(O)O"
  class_label: "met"

Q. API: query returns whether the compound falls strictly under 1 in normalized growth. Query: C#C[C@]1(O)CCC2C3CCc4cc(O)ccc4C3CC[C@@]21C (stereo not given in full)
A. not met

Q. API: query returns whether the compound falls strictly under 1 in normalized growth. Query: C[C@@H]1C[C@@H]([C@H](O)CC2CC(=O)NC(=O)C2)C(=O)[C@@H](C)C1
A. met

====

- procedure_summary: chemical genetic growth profiling, strain panel (AID 1159580);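 note: tested at 20 µM; growth read once vehicle control cultures reached saturation at 30 °C; 1 = growth at the plate median or of vehicle wells; lower values mean less growth of the strain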
- settings: S. cerevisiae deletion strains, growth OD, locus YJL187C, strain SWE1, hits give low values
Hit rate of the full screen: of about 5,500 compounds, about 2,000 (36%) were called active. Another 18% or so got no clear call; they are omitted. This is one part of the list.
measurement_kind: normalized growth
One number for each entry.

- compound: "C#C[C@]1(O)CCC2C3CCc4cc(O)ccc4C3CC[C@@]21C (stereo not given in full)"
  normalized growth: 1.02
- compound: "CC1=C(/C=C/C(C)=C/C=C/C(C)=C/C(=O)O)C(C)(C)CCC1"
  normalized growth: 0.989
- compound: "Cc1cccc(CN2CCN(C(c3ccccc3)c3ccc(Cl)cc3)CC2)c1 (stereo not given)"
  normalized growth: 0.878

For every listed record, write down its normalized growth.
1. CC1=C(/C=C/C(C)=C/C=C/C(C)=C\C(=O)O)C(C)(C)CCC1
2. CC1=C(/C=C/C(C)=C/C=C/C(C)=C/C=C/C=C(C)/C=C/C=C(C)/C=C/C2=C(C)CCCC2(C)C)C(C)(C)CCC1

A.
0.994
0.995
